Answer each item with its documented IC50 normalized to CM-10.
measured-target: T1, recombinant human CEACAM-1 (R&D Systems cat. no. 2244-CM-050) (human, UniProt P13688 35-428)
T1 construct: Coated on the ELISA plate at 0.5 ug/ml
T1 sequence (looked up): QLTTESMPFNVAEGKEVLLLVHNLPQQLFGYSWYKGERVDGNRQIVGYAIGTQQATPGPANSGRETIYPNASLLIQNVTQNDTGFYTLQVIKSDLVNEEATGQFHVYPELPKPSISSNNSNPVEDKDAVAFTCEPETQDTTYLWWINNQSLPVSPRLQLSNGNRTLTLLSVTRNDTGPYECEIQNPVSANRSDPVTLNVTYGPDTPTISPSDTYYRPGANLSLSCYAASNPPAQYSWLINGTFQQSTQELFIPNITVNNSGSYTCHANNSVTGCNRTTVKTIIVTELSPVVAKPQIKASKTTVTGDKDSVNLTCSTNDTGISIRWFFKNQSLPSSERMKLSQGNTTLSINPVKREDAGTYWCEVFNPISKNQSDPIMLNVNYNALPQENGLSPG
assay-details: competition ELISA on coated recombinant human CEACAM-1; competitor biotinylated chimeric CM-10 IgG1

binder	IC50 normalized to CM-10
humanized anti-CEACAM-1 variant VH4/VK1, IgG4 (S241P) (antibody, V domains shown, Tested as human IgG4 (S241P) / kappa antibody; only the variable regions are tied to this variant) VH: QVQLVQSGAEVKKPGASVKVSCKASGYAFTNNLIEWVRQAPGQGLEWIGVINPGSGDTNYNEKFKGRATLTADKSISTAYMELSRLRSDDTAVYYCARGDYYGGFAVDYWGQGTTVTVSS VL: DIQMTQSPSSLSASVGDRVTITCRTSQDIGNYLNWYQQKPGKAVKLLIYYTSRLHSGVPSRFSGSGSGTDYTLTISSLQQEDIATYFCQQGKSLPRTFGGGTKVEIK	1.15 ratio to IC50 of chimeric CM-10
humanized anti-CEACAM-1 variant VH3/VK3, IgG4 (S241P) (antibody, V domains shown, Tested as human IgG4 (S241P) / kappa antibody; only the variable regions are tied to this variant) VH: QVQLVQSGAEVKKPGASVKVSCKASGYAFTNNLIEWVRQAPGQGLEWIGVINPGSGDTNYNEKFKGRATLTADKSINTAYMELSRLRSDDTAVYYCARGDYYGGFAVDYWGQGTTVTVSS VL: DIQMTQSPSSLSASVGDRVTITCRTSQDIGNYLNWYQQKPGKAVKLLIYYTSRLHSGVPSRFSGSGSGTDYTFTISSLQPEDIATYFCQQGKSLPRTFGGGTKVEIK	1.23 ratio to IC50 of chimeric CM-10

Continue with the next binder.
Entry humanized anti-CEACAM-1 variant VH2/VK2, IgG1 (antibody, V domains shown, Tested as human IgG1 / kappa antibody; only the variable regions are tied to this variant) VH: QVQLVQSGAEVKKPGASVKVSCKASGYAFTNNLIEWVKQAPGQGLEWIGVINPGSGDTNYNEKFKGRATLTADKSINTAYMELSRLRSDDTAVYFCARGDYYGGFAVDYWGQGTTVTVSS VL: DIQMTQSPSSLSASVGDRVTITCRTSQDIGNYLNWYQQKPGKAVKLLIYYTSRLHSGVPSRFSGSGSGTDYTLTISSLQPEDIATYFCQQGKSLPRTFGGGTKVEIK — recorded IC50 normalized to CM-10 = 1.24 ratio to IC50 of chimeric CM-10

Reference for the values: patent US20240092934A1
